List of inhibition values.
protocol text: PhoP regulon inhibitors, Salmonella typhi PhoP promoter GFP reporter, confirmatory (AID 1850);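 further: 0% = induced wells with vehicle and 100% = uninduced wells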
applied conditions: fluorescence, 4 h, at 50 µM, hits give high values
The campaign covered roughly 310,000 compounds. About 1,000 (0.32%) were called active. Only a sample is shown. Results with a measured potency or affinity are listed apart.
Entry rule: numbers only, all in %.

- compound: "CN(C)CCCN(C(=O)c1ccco1)c1nc2c(F)cc(F)cc2s1"
  units text: "%"
  result value: 1.38
- compound: "CN(C)C(=O)c1sccc1Oc1ccc(F)cc1[N+](=O)[O-]"
  units text: "%"
  result value: 7.3
- compound: "N=c1n(CCN2CCCCC2)c2ccccc2n1CC(O)c1cccc(Br)c1 (stereo not given)"
  units text: "%"
  result value: 2.9
- compound: "CC1CCCCN1C(=O)COC(=O)c1cc([N+](=O)[O-])ccc1N (stereo not given)"
  units text: "%"
  result value: 0.19
- compound: "NC1=NC(c2ccc(Cl)cc2)n2c(nc3ccccc32)N1 (stereo not given)"
  units text: "%"
  result value: -5.56

Exercise: Which inhibition value is on record for NC(CO)C(O)c1ccc([N+](=O)[O-])cc1 (stereo not given) ?
Solution: -4.54

Exercise: Returns the measured inhibition for the input compound. Input: CCOC(=O)C(NC(C)=O)C(O)c1ccc([N+](=O)[O-])cc1 (stereo not given)
Solution: 3.41

Exercise: Bench note: what inhibition did Cc1ccccc1Nc1nnc(SCC(=O)N(C)C2CCS(=O)(=O)C2)s1 (stereo not given) show?
Solution: -26.7

Exercise: # query: inhibition of entry COc1ccc(CNC(=O)C2CCN(S(=O)(=O)c3ccc4c(c3)CC(C)N4C(C)=O)CC2)cc1 (stereo not given)
Solution: 1.71

Exercise: Look up inhibition for this compound: N=c1n(CCN2CCCC2)c2ccccc2n1CC(O)c1ccc(Cl)c(Cl)c1 (stereo not given)
Solution: 27.1

Exercise: What measured inhibition goes with COc1ccc(C(=O)Cn2nc(CNc3ccc(Br)cc3)[n+]3c2CCCCC3)cc1 ?
Solution: 1.1

Exercise: I have this compound here, CCCn1c(=N)n(CC(=O)c2ccc(Cl)c(Cl)c2)c2ccccc21 , and I need its recorded inhibition.
Solution: -5.11

Exercise: Endpoint output: inhibition of CCNS(=O)(=O)c1ccc(NC(=O)c2ccc(Cn3cc(Br)cn3)o2)cc1 . Value?
Solution: -4.21

Exercise: Reported inhibition for COc1ccc(Nc2nc(N)c3ccccc3n2)c(OC)c1 : what is it?
Solution: 4.67

Exercise: Request the reported inhibition associated with CC1(C)C2(C#N)C(N)=NC3(OCCO3)C12C#N (stereo not given)
Solution: 4.42

Exercise: Given CCOC(=O)Cn1c(=N)n(CCOc2cccc(C)c2)c2ccccc21 , state its recorded inhibition.
Solution: -0.323

Exercise: Given the compound FC(F)(F)c1cccc(Oc2cc(C(F)(F)F)nc(-c3ccccn3)n2)c1 , what is its reported inhibition?
Solution: 1.08

* * *

protocol text: PhoP regulon inhibitors, Salmonella typhi PhoP promoter GFP reporter, confirmatory (AID 1850);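 further: 0% = induced wells with vehicle and 100% = uninduced wells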
applied conditions: fluorescence, 4 h, at 50 µM, hits give high values
Out of some 310,000 compounds screened, about 1,000 (0.32%) were called active. Only a sample is shown. Results with a measured potency or affinity are listed apart.
Measured inhibition by item
Supply the numeric figure in %, leaving out any unit text.

Solved cases (9 shown):
- compound: "Oc1c(Br)cc(Br)cc1C=Nc1cccnc1"
  units text: "%"
  result value: 7.09
- compound: "O=C(O)c1cccc(N/N=C/c2cc(Br)cc(Br)c2O)c1"
  units text: "%"
  result value: -6.95
- compound: "CCOc1ccccc1N(CC(=O)N1CCOCC1)S(=O)(=O)c1ccccc1"
  units text: "%"
  result value: 11.6
- compound: "Cc1cc(C)n(C(=O)Cn2nc([N+](=O)[O-])cc2C)n1"
  units text: "%"
  result value: -5.88
- compound: "OCCNc1c2ccccc2nc2ccccc12"
  units text: "%"
  result value: 11.8
- compound: "Fc1cccc(NCCc2c[nH]c3ccccc23)n1"
  units text: "%"
  result value: 3.37
- compound: "COc1ccc2nc(N(CCN(C)C)C(=O)c3ccc(C(=O)c4ccccc4)cc3)sc2c1"
  units text: "%"
  result value: -16
- compound: "C#CCOCCOCCOCCNc1nc(N2CCN(C(=O)CCCCCCCCCCNC(=O)[C@H]([C@@H](C)CC)n3cc(CCCCCN)nn3)CC2)nc(N2CCN(C(=O)CCCCCCCCCCNC(=O)[C@H](CCCCN)n3cc(CCCC(=O)O)nn3)CC2)n1"
  units text: "%"
  result value: -21.1
- compound: "CNCCc1c[nH]c2ccccc12"
  units text: "%"
  result value: 10.1

Proceed to the following item.
Exercise: Report inhibition for C[C@H](NC(=O)[C@@H]1Cc2ccccc2CN1)C(=O)Nc1ccc2c(c1)OCCO2 please.
Solution: -6.47
